Origin of the recorded values: patent US10266526B2

target: SMYD3 (Homo sapiens (Human)); assay: SMYD3 cell assay (Trimethyl-MEKK2 In-Cell Western in 293T/17 cells transfected with MEKK2-flag and SMYD3); assay type: cell-based; conditions: Table 3A; average of n = 1 to n = 50; read-out: SMYD3 cell IC50
Sequence (Q9H7B4 whole entry): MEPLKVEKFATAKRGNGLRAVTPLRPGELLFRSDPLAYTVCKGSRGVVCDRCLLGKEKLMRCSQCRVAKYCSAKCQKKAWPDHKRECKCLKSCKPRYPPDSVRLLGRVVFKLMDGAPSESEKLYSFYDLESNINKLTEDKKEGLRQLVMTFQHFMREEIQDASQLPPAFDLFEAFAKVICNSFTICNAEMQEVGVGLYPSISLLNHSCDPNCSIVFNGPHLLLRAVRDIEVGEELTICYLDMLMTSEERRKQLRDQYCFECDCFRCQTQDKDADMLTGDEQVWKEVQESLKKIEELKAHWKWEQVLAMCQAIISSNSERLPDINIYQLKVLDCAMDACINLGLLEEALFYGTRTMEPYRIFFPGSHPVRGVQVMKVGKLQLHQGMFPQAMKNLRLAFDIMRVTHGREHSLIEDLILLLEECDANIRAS
Where a name gives a salt, the structure may show the parent alone.

Molecule	Measurement unit	Relation	IC50
NCCCS(=O)(=O)N1CCC(NC(=O)c2cc3c(cc2Cl)NC(=O)C3)CC1	nM	=	6840
NC1CCN(S(=O)(=O)N2[C@@H]3CC[C@H]2C[C@@H](NC(=O)c2cc(C4CC4)no2)C3)CC1	nM	=	257
Cc1cc2c(cc1C(=O)N[C@H]1C[C@H]3CC[C@@H](C1)N3S(=O)(=O)N1CCC(N)CC1)CC(=O)N2	nM	=	1790
C[C@H]1CC(NC(=O)c2cc3c(cc2Cl)NC(=O)C3)CCN1C(=O)[C@H]1CC[C@H](N)CC1 (some centres unmarked)	nM	≥	10000
C[C@H]1C[C@@H](NC(=O)c2nnc(C3CC3)s2)CCN1S(=O)(=O)N1CCC(N)CC1	nM	=	205
C[C@H]1C[C@@H](NC(=O)c2cnn(C3CC3)c2)CCN1S(=O)(=O)N1CCC(N)CC1	nM	≥	10000
O=C1Cc2cc(C(=O)N[C@H]3C[C@H]4CC[C@@H](C3)N4S(=O)(=O)CC3CCN(CCCC(F)(F)F)CC3)c(Cl)cc2N1	nM	=	36.1
NC1CCN(S(=O)(=O)N2[C@@H]3CC[C@H]2C[C@@H](NC(=O)c2ccc4c(c2)NC(=O)CO4)C3)CC1 [compound 609, Hydrochloride]	nM	=	3700
O=C1Cc2cc(C(=O)N[C@H]3C[C@H]4CC[C@@H](C3)N4S(=O)(=O)CC3CCN(CCCO)CC3)c(Cl)cc2N1	nM	=	764
O=C1Cc2cc(C(=O)N[C@H]3C[C@H]4CC[C@@H](C3)N4S(=O)(=O)N3CCC(NCc4ccccc4)CC3)ccc2N1	nM	=	71
NC1CCN(S(=O)(=O)N2[C@@H]3CC[C@H]2C[C@@H](NC(=O)c2cc4c(cc2Br)NC(=O)C4)C3)CC1	nM	=	3730
CC(=O)Nc1ccc(S(=O)(=O)N2CCC(NC(=O)c3cc4c(cc3Cl)NC(=O)C4)CC2)cc1	nM	≥	10000
NC1CCC(S(=O)(=O)N2[C@@H]3CC[C@H]2C[C@@H](NC(=O)c2ccc4c(c2)OC(F)(F)O4)C3)CC1 (some centres unmarked)	nM	=	1080
CCc1cc(C(=O)N[C@@H]2CCN(S(=O)(=O)N3CCC(N)CC3)[C@@H](C)C2)ns1	nM	=	2080
